Bliss excess by entry:
Tested on: NCI-H2369 (Mesothelioma)
PROTOCOL: Bliss excess, mean over the matrix (fraction); higher = more synergy;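 further: after 72 h of two-drug dosing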
Response field accepts a number only; no unit should be typed.

CC1(C)CCC(CN2CCN(c3ccc(C(=O)NS(=O)(=O)c4ccc(NCC5CCOCC5)c([N+](=O)[O-])c4)c(Oc4cnc5[nH]ccc5c4)c3)CC2)=C(c2ccc(Cl)cc2)C1 [Venetoclax] + C=CCn1c(=O)c2cnc(Nc3ccc(N4CCN(C)CC4)cc3)nc2n1-c1cccc(C(C)(C)O)n1 [AZD1775] (first compound max 1 µM, partner max 1 µM); -0.0134
CN(C)CCCOc1ccc(-c2ccc3ncc4c(c3c2)n(C2CCOCC2)c(=O)n4C)cn1 [AZD0156] + C[C@@H]1COCCN1C2=NC(=NC(=C2)C3(CC3)[S@](=N)(=O)C)C4=C5C=CNC5=NC=C4 [AZD6738] (first compound max 1 µM, 7x7, partner max 10 µM); -0.0253

# context switch: different compound, same Bliss excess
Give its Bliss excess value. Item: Cc1c2c(nn1C)CSCc1cc(n(C)n1)CSc1cc(c3ccccc3c1)OCCCc1c(C(=O)O)n(C)c3c-2c(Cl)ccc13 [AZD5991] + Cn1cnc2c(F)c(Nc3ccc(Br)cc3Cl)c(C(=O)NOCCO)cc21 [Selumetinib] (first compound max 1 µM, 7x7, partner max 3 µM)
0.0081

----------
Tested on: SW1783 (Low Grade Glioma)
PROTOCOL: Bliss excess, mean over the matrix (fraction); higher = more synergy
MEASURE NAME: Bliss excess
Response field accepts a number only; no unit should be typed.

C[C@@H](Nc1cc(F)cc(F)c1)c1cc(C(=O)N(C)C)cc2c(=O)cc(N3CCOCC3)oc12 [AZD8186] + CC(=O)c1c(C)c2cnc(Nc3ccc(N4CCNCC4)cn3)nc2n(C2CCCC2)c1=O [Palbociclib] (first compound max 10 µM, 7x7, partner max 10 µM); 0.0594
CC(=O)c1c(C)c2cnc(Nc3ccc(N4CCNCC4)cn3)nc2n(C2CCCC2)c1=O [Palbociclib] + Cc1c2c(nn1C)CSCc1cc(n(C)n1)CSc1cc(c3ccccc3c1)OCCCc1c(C(=O)O)n(C)c3c-2c(Cl)ccc13 [AZD5991] (first compound max 10 µM, 7x7, partner max 1 µM); -0.0248
O=C(c1cc(Cc2n[nH]c(=O)c3ccccc23)ccc1F)N1CCN(C(=O)C2CC2)CC1 [Olaparib] + CC1(C)CCC(CN2CCN(c3ccc(C(=O)NS(=O)(=O)c4ccc(NCC5CCOCC5)c([N+](=O)[O-])c4)c(Oc4cnc5[nH]ccc5c4)c3)CC2)=C(c2ccc(Cl)cc2)C1 [Venetoclax] (first compound max 10 µM, 7x7, partner max 1 µM); -0.0349
C[C@@H](Oc1cc(-c2cnn(C3CCNCC3)c2)cnc1N)c1c(Cl)ccc(F)c1Cl [Crizotinib] + CC1=C(C(=CC=C1)Cl)NC(=O)C2=CN=C(S2)NC3=CC(=NC(=N3)C)N4CCN(CC4)CCO [Dasatinib] (first compound max 10 µM, 7x7, partner max 2 µM); 0.103

Can you look up Bliss excess on SW1783 (Low Grade Glioma) for C=CCn1c(=O)c2cnc(Nc3ccc(N4CCN(C)CC4)cc3)nc2n1-c1cccc(C(C)(C)O)n1 [AZD1775] + CCc1c2c(nc3ccc(O)cc13)-c1cc3c(c(=O)n1C2)COC(=O)[C@]3(O)CC [SN-38] (first compound max 1 µM, partner max 0.3 µM) ?
-0.0817

Now the same for N#Cc1cnc(Nc2cc(NC[C@H]3CNCCO3)c(C(F)(F)F)cn2)cn1 [SRA737] + O=c1[nH]cc(F)c(=O)[nH]1 [5-Fluorouracil] (first compound max 10 µM, 7x7, partner max 20 µM)
0.0143

Now the same for CCN(CCO)CCCOc1ccc2c(Nc3cc(CC(=O)Nc4cccc(F)c4)[nH]n3)ncnc2c1 [AZD2811] + O=C(c1cc(Cc2n[nH]c(=O)c3ccccc23)ccc1F)N1CCN(C(=O)C2CC2)CC1 [Olaparib] (first compound max 1 µM, 7x7, partner max 10 µM)
-0.0423

Now the same for Cn1cnc2c(F)c(Nc3ccc(Br)cc3Cl)c(C(=O)NOCCO)cc21 [Selumetinib] + C=CCn1c(=O)c2cnc(Nc3ccc(N4CCN(C)CC4)cc3)nc2n1-c1cccc(C(C)(C)O)n1 [AZD1775] (first compound max 10 µM, partner max 1 µM)
-0.0939
